Tested on: UACC-62 melanoma
Test: NCI tumour cell line growth inhibition, 48 h
readout-name: TGI (µM)
Numbers only; they are read as µM.

Example entries begin here.
{"substance-smiles": "COC(=O)/C(=C\\Nc1cccc(C)n1)S(=O)(=O)c1ccc(C)cc1", "readout-name": "TGI", "result-value": 91.5}
{"substance-smiles": "CN[C@H]1C=C[C@@H]2/C=C(C)/C=C/[C@@H](C)[C@H]([C@H](C)[C@H](O)[C@@H](C)NC(C)=O)OC(=O)/C=C/C=C(C)\\C=C\\[C@]2(C)C1", "readout-name": "TGI", "result-value": 19.7}
{"substance-smiles": "COc1cc(-c2cc3ncccc3c3nc(N)c4cccnc4c23)cc(OC)c1OC", "readout-name": "TGI", "result-value": 19.4}

Measured TGI, `O=C(CO[N+](=O)[O-])Nc1ccc(C(=O)/C=C/c2ccc(Cl)cc2)cc1` : 11

---

Catalogue of molecules with associated TGI
System: OVCAR-8 ovarian
Assay: NCI tumour cell line growth inhibition, 48 h
Where a SMILES comes first, the peptide text is derived from it. The star is where a group is joined. Boc = CC(C)(C)OC(=O)*; OSu = O=C1CCC(=O)N1O*

Example entries begin here.
{"molecule": "COC(=O)N(C(=O)OC)C(C(=O)O)C(C)C (stereo not drawn)", "TGI": "> 100 µM"}
{"molecule": "CCC[CH2][Sn]1([CH2]CCC)[O]CC(Cc2ccccc2)[O]1 (stereo not drawn)", "TGI": "6.59 µM"}
{"molecule": "COc1ccc(S(=O)(=O)N2CC(C)(C)CN(S(=O)(=O)c3ccc(OC)cc3)C2C(=O)NO)cc1", "TGI": "> 20 µM"}
{"molecule": "O=C(CP(=O)(O)O)NC(CC(=O)OCc1ccccc1)C(=O)OCc1ccccc1 (stereo not drawn)", "TGI": "> 100 µM"}
{"molecule": "COC(=O)C(Cc1c(C2Nc3ccccc3C2CC(NC(=O)CNC(C)=O)C(=O)OC)[nH]c2ccccc12)NC(=O)CNC(C)=O (stereo not drawn)", "TGI": "> 100 µM"}
{"molecule": "CC(NC(=O)C(NC(=O)OC(C)(C)C)C(C)C)C(=O)NCC(=O)ON1C(=O)CCC1=O (stereo not drawn) (Boc-Val-Ala-Gly-OSu; configuration not given here)", "TGI": "> 100 µM"}

Measured TGI, `O=C1NC(SSC2=NNC3(C(=O)N2)c2ccccc2-c2ccccc23)=NNC12c1ccccc1-c1ccccc12` : > 10 µM

Measured TGI, `Cc1ccc(S(=O)(=O)NC(=O)C2C(=O)CC3(CCCCC3)CC2=O)cc1` : 87.1 µM

Measured TGI, `S=C(Nc1ccc(Br)cc1)Nc1ccc(Br)cc1` : > 100 µM

Measured TGI, `C[Si](C)(OCCS(=O)(=O)O)C1(Cc2cccc3ccccc23)S(=O)(=O)OCCOS1(=O)=O` : 52.4 µM

Measured TGI, `O=C(NCCC1([N+](=O)[O-])CCN(C(=O)c2ccccc2)CC1)c1ccccc1` : > 100 µM

---

System: ACHN renal
Experiment: NCI tumour cell line growth inhibition, 48 h; in the data active = GI50 below about 0.43 µM; inactive = the rest
One label from this list, please: active, inactive

Some entries whose results are on file:
{"substance-smiles": "C[N-]c1nnnn1C.[Au+].c1ccc([PH+](c2ccccc2)c2ccccc2)cc1", "test-target": "ACHN renal", "group": "inactive"}
{"substance-smiles": "C=C1C(=O)O[C@H]2[C@H]1CC/C(COC(=O)CSCCSCC(=O)OC/C1=C/CC[C@@]3(C)O[C@H]3[C@H]3OC(=O)C(=C)[C@@H]3CC1)=C\\CC[C@@]1(C)O[C@@H]21", "test-target": "ACHN renal", "group": "inactive"}
{"substance-smiles": "COc1ccc(S(=O)(=O)N2CC(C)(C)CN(S(=O)(=O)c3ccc(OC)cc3)C2C(=O)NO)cc1", "test-target": "ACHN renal", "group": "inactive"}
{"substance-smiles": "CCOC(=O)c1sc(-c2ccc(OS(=O)(=O)c3ccc(Br)s3)c(C=O)c2)nc1C", "test-target": "ACHN renal", "group": "inactive"}
{"substance-smiles": "CC(C)(C)C(=O)c1c(C(F)(F)F)n([O-])c2ccccc2[n+]1=O", "test-target": "ACHN renal", "group": "active"}

Turning to the following molecule.
Any idea what this test logged for `Fc1ccc2[nH]cc(-c3nonc3-c3c[nH]c4ccc(Br)cc34)c2c1` ?
inactive

---

Test system: SK-MEL-28 melanoma
Test: NCI tumour cell line growth inhibition, 48 h
readout-name: TGI

{"compound": "COc1ccc2c(c1)C(=O)c1c-2n(CCCN=[N+]=[N-])c(=O)c2cc(OC)c(OC)cc12", "result-value": "> 100 µM"}
{"compound": "COC(=O)/C=C1/CCC(C(=O)OC)N1 (stereo unspecified)", "result-value": "> 100 µM"}
{"compound": "COc1cc2c(cc1OC)C(C(CO)CO)N(CC(O)CCl)CC2 (stereo unspecified)", "result-value": "> 100 µM"}
{"compound": "C#Cc1cccc(N2C(=O)CCC2=O)c1", "result-value": "32.3 µM"}
{"compound": "COc1ccc(-c2cc(=O)c3ccc(C)nc3[nH]2)cc1", "result-value": "> 100 µM"}

Then there is this compound:
Measured TGI, `COc1cc(OC)cc(N(CCNC(C)C)c2ccc3ncc(-c4cnn(C)c4)nc3c2)c1` : 24.3 µM

---

Test system: PC-3 prostate
Experiment: NCI tumour cell line growth inhibition, 48 h
readout-name: TGI

{"compound": "Cc1ccc(N=N/C(=N\\NC(=O)c2ccc(C)cc2)c2ccc(N(CCC#N)CCC#N)cc2C)cc1", "test-target": "PC-3 prostate", "TGI": "> 100 µM"}
{"compound": "O=C1CC2(c3ccccc3)ON=C(c3ccccc3)N2c2ccccc2N1 (stereo not given)", "test-target": "PC-3 prostate", "TGI": "> 100 µM"}
{"compound": "Cc1nn(-c2nc3ccccc3[nH]2)c(N)c1-c1ccc(Cl)cc1", "test-target": "PC-3 prostate", "TGI": "> 100 µM"}
{"compound": "CC(=O)N=C1N(/C=C2\\C(=O)Oc3ccccc3C2=O)C(=O)/C(=C/c2ccc(OC(C)=O)cc2)N1C", "test-target": "PC-3 prostate", "TGI": "> 100 µM"}

The compound COC(=O)[C@]1(c2cc3ccccc3n2S(=O)(=O)c2ccccc2)CC2CN(C(C)=O)C1CC2=O (stereo not given in full) , tested on PC-3 prostate, showed TGI of 3.83 µM

---

Catalogue of compounds with associated TGI
Tested on: SNB-19 CNS
Test: NCI tumour cell line growth inhibition, 48 h

Example entries begin here.
{"compound": "C#CCOc1cccc(-c2ncnc3cc(NC(=O)CCl)ccc23)c1", "result-value": "4.86 µM"}
{"compound": "Clc1nc(Cl)c2ncn(Cc3cccc(Cn4cnc5c(Cl)nc(Cl)nc54)c3)c2n1", "result-value": "13.7 µM"}
{"compound": "Oc1ccc(-c2nc(-c3cccnc3)c(-c3ccc(Cl)cc3)[nH]2)cc1O", "result-value": "27.1 µM"}

Measured TGI, `COc1ccc(S(=O)(=O)N2CC(C)(C)CN(S(=O)(=O)c3ccc(OC)cc3)C2C(=O)NO)cc1` : > 20 µM

Measured TGI, `C[n+]1c(-c2ccc(/C=N/NC(=N)N/N=C/c3ccc(-c4cn5cc(Cl)ccc5[n+]4C)cc3)cc2)cn2cc(Cl)ccc21` : > 100 µM

Measured TGI, CCCCC(=O)NS(=NC(=O)c1ccccc1)C(Cl)(Cl)Cl (stereo not given) : > 100 µM

Measured TGI, `CN[C@H]1C=C[C@@H]2/C=C(C)/C=C/[C@@H](C)[C@H]([C@H](C)[C@H](O)[C@@H](C)NC(C)=O)OC(=O)/C=C/C=C(C)\C=C\[C@]2(C)C1` : > 49 µM

Measured TGI, COC(=O)/C=C1/CCC(C(=O)OC)N1 (stereo not given) : > 100 µM

Measured TGI, `Cc1cc2c(ccc3c(C)cc(=O)oc32)o1` : > 100 µM

---

Test system: HOP-62 NSCLC
Experiment: NCI tumour cell line growth inhibition, 48 h
Decide by TGI: equal to or exceeding 30 µM means true, less means false.

{"compound": "C=C(c1ccc2nc(NC(=O)OC)[nH]c2c1)c1cccs1", "group": "true"}
{"compound": "COC(=O)/C=C\\n1c(C)cc(=O)[nH]c1=O", "group": "true"}
{"compound": "O=C(c1ccccc1)N1CCN(C(=S)N(C(=O)c2ccccc2)c2ccccc2)C1=S", "group": "false"}
{"compound": "CC(NC(=O)C(C)NC(=O)C(N)CCP(C)(=O)O)C(=O)O (stereo not given)", "group": "true"}
{"compound": "CCCN(CCCC(NC(C)=O)C(=O)NCc1ccccc1)C(=O)N(CCCl)N=O (stereo not given)", "group": "false"}

Test whether the compound CCOC(=O)C1=CNC(C(=O)OCC)C1c1cccn1-c1ccc(Cl)cc1[N+](=O)[O-] (stereo not given) records TGI of 30 µM or higher.
true

Test whether the compound C=C(C)C(=O)O[C@H]1C[C@@]23O[C@@H]2CCC(=C[C@H]2OC(=O)C(=C)[C@H]12)COC3O (stereo not given in full) records TGI of 30 µM or higher.
true

Test whether the compound `Oc1ccc(-c2nc(-c3cccnc3)c(-c3ccc(Cl)cc3)[nH]2)cc1O` records TGI of 30 µM or higher.
false

Test whether the compound `CN(C)CCNC(=O)c1cccc2c(NCCN(C)C)c3ccccc3nc12` records TGI of 30 µM or higher.
false

Test whether the compound O=C1Nc2ccccc2C12CCNC2Cc1ccccc1 (stereo not given) records TGI of 30 µM or higher.
true

Value source: PubChem BioAssay (NCI)
